- TARGET UNDER TEST: RpFNR (R. palustris TrxR-type FNR) (Rhodopseudomonas palustris, UniProt Q6N2U4)
- Construct: domains span residues 2-344
- Sequence (Q6N2U4 whole entry, the tested form may be a part): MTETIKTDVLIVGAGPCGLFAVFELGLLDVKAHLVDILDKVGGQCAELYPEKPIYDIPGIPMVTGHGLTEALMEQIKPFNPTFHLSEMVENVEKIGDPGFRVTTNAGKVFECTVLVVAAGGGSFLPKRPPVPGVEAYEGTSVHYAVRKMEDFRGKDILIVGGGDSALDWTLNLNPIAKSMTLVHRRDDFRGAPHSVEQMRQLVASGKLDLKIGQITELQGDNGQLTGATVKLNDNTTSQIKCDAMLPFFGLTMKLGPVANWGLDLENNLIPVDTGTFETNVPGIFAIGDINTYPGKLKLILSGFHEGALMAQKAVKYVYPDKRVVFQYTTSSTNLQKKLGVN
- PROTOCOL SUMMARY: steady-state spectrophotometric NADPH:juglone reductase inhibition
- CONDITION DETAILS: read-out: Kis
ENDPOINT NAME: Ki (µM)
// note: answer is a bare numeric in µM

Q: Give Ki for NC(=O)c1ccc[n+]([C@@H]2O[C@H](COP(=O)(O)OP(=O)(O)OC[C@H]3O[C@@H](n4cnc5c(N)ncnc54)[C@H](OP(=O)(O)O)[C@@H]3O)[C@@H](O)[C@H]2O)c1 [NADP^+]
A: 150
